- targetOrTestSystem: fibrinogen binding to thrombin-stimulated platelets (Homo sapiens, UniProt P05106+P08514)
- Construct: endogenous in cells
- Sequence (P08514 32-887 limits assumed): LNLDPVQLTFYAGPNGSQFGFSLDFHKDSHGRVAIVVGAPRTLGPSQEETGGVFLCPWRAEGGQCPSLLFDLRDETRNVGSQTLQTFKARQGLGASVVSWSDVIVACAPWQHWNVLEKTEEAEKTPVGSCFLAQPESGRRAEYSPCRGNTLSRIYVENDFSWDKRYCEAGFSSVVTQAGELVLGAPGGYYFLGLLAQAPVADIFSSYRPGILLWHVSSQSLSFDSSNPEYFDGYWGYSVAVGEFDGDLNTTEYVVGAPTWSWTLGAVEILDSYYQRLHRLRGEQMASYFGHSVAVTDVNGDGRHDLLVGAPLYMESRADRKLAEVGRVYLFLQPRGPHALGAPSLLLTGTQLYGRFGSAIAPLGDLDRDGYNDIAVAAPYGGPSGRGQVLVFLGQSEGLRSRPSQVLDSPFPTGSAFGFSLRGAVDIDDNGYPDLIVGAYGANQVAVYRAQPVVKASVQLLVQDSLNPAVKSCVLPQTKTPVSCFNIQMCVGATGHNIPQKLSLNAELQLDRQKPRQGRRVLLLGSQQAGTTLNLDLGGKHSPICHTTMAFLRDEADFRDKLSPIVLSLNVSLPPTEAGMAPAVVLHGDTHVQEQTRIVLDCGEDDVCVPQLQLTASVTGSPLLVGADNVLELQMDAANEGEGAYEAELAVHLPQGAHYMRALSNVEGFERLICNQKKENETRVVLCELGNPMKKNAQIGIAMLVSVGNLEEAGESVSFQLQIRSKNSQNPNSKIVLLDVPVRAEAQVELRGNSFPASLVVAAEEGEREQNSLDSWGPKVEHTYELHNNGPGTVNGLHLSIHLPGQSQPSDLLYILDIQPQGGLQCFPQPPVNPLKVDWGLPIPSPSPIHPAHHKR
- Sequence (P08514 891-1039 partner limits assumed): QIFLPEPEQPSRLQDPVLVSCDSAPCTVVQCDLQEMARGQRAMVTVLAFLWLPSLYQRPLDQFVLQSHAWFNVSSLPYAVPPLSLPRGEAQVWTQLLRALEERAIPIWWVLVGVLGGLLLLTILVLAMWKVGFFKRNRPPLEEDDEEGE
- Sequence (P05106 27-788): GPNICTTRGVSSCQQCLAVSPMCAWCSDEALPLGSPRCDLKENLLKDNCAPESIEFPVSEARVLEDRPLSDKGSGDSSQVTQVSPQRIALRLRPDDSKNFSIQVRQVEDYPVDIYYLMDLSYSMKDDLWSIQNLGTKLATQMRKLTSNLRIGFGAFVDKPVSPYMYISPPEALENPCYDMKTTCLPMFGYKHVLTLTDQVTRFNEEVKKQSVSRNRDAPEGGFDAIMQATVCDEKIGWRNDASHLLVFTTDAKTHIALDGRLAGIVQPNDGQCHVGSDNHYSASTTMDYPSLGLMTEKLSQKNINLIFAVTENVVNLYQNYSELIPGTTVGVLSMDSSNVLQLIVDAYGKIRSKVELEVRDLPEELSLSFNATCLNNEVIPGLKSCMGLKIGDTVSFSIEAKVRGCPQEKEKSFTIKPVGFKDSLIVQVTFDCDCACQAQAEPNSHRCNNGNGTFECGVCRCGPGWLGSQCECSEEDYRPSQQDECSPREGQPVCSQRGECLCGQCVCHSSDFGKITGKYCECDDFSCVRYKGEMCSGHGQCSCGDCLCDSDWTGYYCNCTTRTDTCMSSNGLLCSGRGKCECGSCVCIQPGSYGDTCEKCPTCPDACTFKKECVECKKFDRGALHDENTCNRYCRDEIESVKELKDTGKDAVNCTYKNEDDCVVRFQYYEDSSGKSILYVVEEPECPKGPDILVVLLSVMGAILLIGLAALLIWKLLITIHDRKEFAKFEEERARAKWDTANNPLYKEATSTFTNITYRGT
- procedureText: Inhibition of radiolabeled (125I) fibrinogen binding assay
- assayContext: thrombin-stimulated washed platelets; 125I-fibrinogen 0.176 μmol/liter
Where a SMILES comes first, the peptide text is derived from it. [ ]: non-standard residue; d: D form. Aze = O=C(O)[C@@H]1CCN1; Inp = O=C(O)C1CCNCC1
valueType: IC50

Prompt line: Give the measured IC50 for CC(C)[C@H](NC(=O)[C@H](CC(=O)O)NC(=O)[C@@H]1CCN1C(=O)C1CCNCC1)C(=O)O (H-[Inp][Aze]DV-OH)
Response line: > 64 µM

Hey, just so you know, these numbers are from patent US5328900A.
